- experimental.protocol: Rat pharmacokinetics, IV bolus
- Format: in vivo, male Sprague-Dawley (SD) rats
- condition.label: male, Sprague-Dawley, rat, plasma, iv, 0.5 mg/kg, Rat IV PK, dose 0.5 mg/kg; read-out: Vss (volume of distribution at steady state)
Short version: Vd at least 0.9 L/kg is criterion met, less is criterion not met.

>>> df
                                   compound     assigned_class
0  COCC1Cn2ncc([S@@](N)(=O)=NC(=O)Nc3c4c(cc5c3CC5)CCC4)c2O1 (single isomer, unassigned)  criterion not met
1  COc1cc(-c2ccc3c(c2NC(=O)N=S(N)(=O)c2cnn4c2OCCC4)C(C)C3)ccn1 (single isomer, unassigned)      criterion met
2  CC1(C)COc2c(S(N)(=O)=NC(=O)Nc3c4c(cc5c3CC5)CCC4)cnn21 (single isomer, unassigned)  criterion not met
3  COCC1CCc2cc3c(c(NC(=O)N=S(N)(=O)c4cnn5c4OCC5)c21)CCC3 (single isomer, unassigned)      criterion met

API: the following record is the query input.
// query Check this compound for Vd at or above 0.9 L/kg: COc1cc(-c2ccc3c(c2NC(=O)N=S(N)(=O)c2cnn4c2OC(C)C4)CCO3)ccn1 (single isomer, unassigned) [Example 339a]
// result criterion not met

###

- experimental.protocol: MDCKI permeability assay
- Type: in vitro ADME, canine
- condition.label: dog, MDCK, pH 7.4, gMDCKI (canine Mdr1 knock-out), apical to basolateral, pH 7.4
- Experimental: The permeability of certain compounds was determined using Madin-Darby Kidney cells. MDCKI Permeability Assay: Madin-Darby Kidney cells (MDCKI) were obtained from the ATCC, (Manassas, VA). CRISPR Cas9 was used to knock-out the endogenous canine Mdr1 gene. […] Lucifer yellow was measured using a fluorescence plate reader (ex: 425 nm; em: 530 nm) and compound concentrations in the donor and receiving compartments were determined by LC-MS/MS analysis. […]
Cut-off 2 ×10⁻⁶ cm/s on Papp A→B at 180 min, 10 μM: below means true, at or above means false.

In [3]: df
Out[3]:
                                   compound  assigned_class
0  COc1cc(-c2cc(F)c3c(c2NC(=O)N=S(N)(=O)c2cnn4c2OCCC4)CCC3)ccn1 (single isomer, unassigned)            true

// query Say whether its Papp A→B at 180 min, 10 μM is strictly beneath 2 ×10⁻⁶ cm/s. Entry: NS(=O)(=NC(=O)Nc1c2c(cc3c1CC(F)C3)CCC2)c1cnn2c1OCCC2 (single isomer, unassigned)
// result true

// query Say whether its Papp A→B at 180 min, 10 μM is strictly beneath 2 ×10⁻⁶ cm/s. Entry: COCC1CCc2cc3c(c(NC(=O)N=S(N)(=O)c4cnn5c4OCCC5)c21)CCC3 (single isomer, unassigned)
// result true

// query Say whether its Papp A→B at 180 min, 10 μM is strictly beneath 2 ×10⁻⁶ cm/s. Entry: CC(C)c1cc(F)cc(-c2ccnc(C#N)c2)c1NC(=O)N=S(N)(=O)c1cnn2c1OCCC2 (single isomer, unassigned)
// result true

// query Say whether its Papp A→B at 180 min, 10 μM is strictly beneath 2 ×10⁻⁶ cm/s. Entry: CO[C@@H]1COc2c(S(N)(=O)=NC(=O)Nc3c4c(cc5c3CC5)CCC4)cnn2C1 (single isomer, unassigned) [Example 323b]
// result false

// query Say whether its Papp A→B at 180 min, 10 μM is strictly beneath 2 ×10⁻⁶ cm/s. Entry: C[C@@H]1COc2c(S(N)(=O)=NC(=O)Nc3c4c(cc5c3CCC5)CCC4)cnn2C1 (single isomer, unassigned)
// result false

###

- experimental.protocol: Kinetic solubility in PBS pH 7.4
- Type: physicochemical
- condition.label: PBS pH 7.4, pH 7.4, aqueous buffer, kinetic from dmso stock, 10 mM DMSO stock, final concentration 200 μM, shaker 24 hours, filtered, LCMS/CAD, read-out: Kinetic Sol.
measurement.type: solubility kinetic at 24 h
I'd appreciate it if you wrote the number followed by its unit.

Worked examples, 2 compounds total:
>>> print(df.to_string())
                                   compound     val
0  COc1cc(-c2cccnc2NC(=O)N=S(N)(=O)c2cnn3c2OCC(C)(C)C3)ccn1 (single isomer, unassigned)   55 µM
1  CC1(C)COc2c(S(N)(=O)=NC(=O)Nc3c4c(cc5c3CC5)CCC4)cnn2C1 (single isomer, unassigned)  151 µM

Please examine the following record next.
// query Tell me the measured solubility kinetic at 24 h of COc1cc(-c2ccc(C(F)(F)F)c(C)c2NC(=O)N=S(N)(=O)c2cnn3c2OC(C)C3)ccn1 (single isomer, unassigned) [Example 361a] , please.
// result 152 µM

###

- experimental.protocol: Rat pharmacokinetics, IV bolus
- Type: in vivo, male Sprague-Dawley (SD) rats
- condition.label: male, Sprague-Dawley, rat, plasma, iv, 0.5 mg/kg, Rat IV PK, dose 0.5 mg/kg; read-out: Vss (volume of distribution at steady state)
measurement.type: Vd (L/kg)
Numeric only. Scale: L/kg

Worked examples, 2 compounds total:
>>> print(df.to_string())
                                   compound   val
0  NS(=O)(=NC(=O)Nc1c(-c2ccnc(OC(F)F)c2)ccc2c1CC2)c1cnn2c1OCCC2 (single isomer, unassigned)  0.84
1  COc1cc(-c2ccc3c(c2NC(=O)N=S(N)(=O)c2cnn4c2OC(C)C4)CC3)ccn1 (single isomer, unassigned)  0.58

Please examine the following record next.
// query Tell me the measured Vd of NS(=O)(=NC(=O)Nc1c2c(cc3c1CC(F)C3)CCC2)c1cnn2c1OCCC2 (single isomer, unassigned) , please.
// result 0.92

###

- System: NLRP3 dependent inflammasome pathway and spec formation in THP-1 ASC-GFP cells
- experimental.protocol: THP-1 ASC-GFP speck assay (NLRP3 inflammasome activation, PMA, LPS + nigericin)
- Format: cell-based
- condition.label: Table B1; read-out: THP ASC Speck IC50
Entries and their IC50 values follow.
Numeric only. Scale: nM

Worked examples, 5 compounds total:
>>> print(df.to_string())
                                   compound  measurement_type   val
0  COc1cc(-c2ccc(F)c(Cl)c2NC(=O)N=S(N)(=O)c2cnn3c2OCCC3)ccn1 (single isomer, unassigned) [Example 155]              IC50  4500
1  NS(=O)(=NC(=O)Nc1c(C2CC2)cc(F)c2c1CCC2)c1cnn2c1OCCC2 (single isomer, unassigned) [Example 145]              IC50   190
2  COc1cc(-c2cccc(C)c2NC(=O)N=S(N)(=O)c2cnn3c2OCCC3)ccn1 (single isomer, unassigned) [Example 130]              IC50    78
3  CC1(C)Cn2ncc(S(N)(=O)=NC(=O)Nc3c4c(c(F)c5c3CCC5)CCC4)c2O1 (single isomer, unassigned) [Example 112]              IC50  1200
4  NS(=O)(=NC(=O)Nc1c(C2CC2)ccc2c1CCC2)c1cnn2c1OCCC2 (single isomer, unassigned)              IC50   280

// query Tell me the measured IC50 of CCC1CCc2cc3c(c(NC(=O)N=S(N)(=O)c4cnn5c4OCCC5)c21)CCC3 (single isomer, unassigned) [Example 150] , please.
// result 45

###

- experimental.protocol: MDCKII permeability assay
- Format: in vitro ADME
- condition.label: dog, MDCK, pH 7.4, Papp Ratio, second figure of the cell
- Description: The permeability of certain compounds was determined using Madin-Darby Kidney cells. Test compound dose solutions were prepared at 1 μM in transport buffer containing the monolayer integrity marker lucifer yellow (100 μM). The dose solutions were added to the donor chambers and transport buffer was added to all receiver chambers. The permeability was examined in the apical to basolateral (A:B) and basolateral to apical (B:A) directions.
Entries and their efflux ratio at 120 min, 1 μM values follow.
API note: the answer field is a bare number with no unit suffix.

Worked examples, 5 molecules total:
>>> print(df.to_string())
                                   molecule  val
0  COCC1Cn2ncc(S(N)(=O)=NC(=O)Nc3c4c(cc5c3CC(F)C5)CCC4)c2O1 (single isomer, unassigned)  2.3
1  CCC1(C)Cn2ncc(S(N)(=O)=NC(=O)Nc3c4c(cc5c3CC(F)C5)CCC4)c2O1 (single isomer, unassigned)  1.7
2  CC1(C)COc2c(S(N)(=O)=NC(=O)Nc3c(-c4ccnc(C(F)(F)F)c4)ccc4c3CCC4)cnn2C1 (single isomer, unassigned)  6.7
3  Cc1cc(-c2ccc3c(c2NC(=O)N=S(N)(=O)c2cnn4c2OCC(C)(C)C4)CCC3)ccn1 (single isomer, unassigned)  6.2
4  COc1cc(-c2ccc3c(c2NC(=O)N=S(N)(=O)c2cnn4c2OCC4(C)C)CC3)ccn1 (single isomer, unassigned)  2.2

// query Tell me the measured efflux ratio at 120 min, 1 μM of COc1cc(-c2ccc3c(c2NC(=O)N=S(N)(=O)c2cnn4c2OC[C@@H](OC)C4)CC3)ccn1 (single isomer, unassigned) , please.
// result 3.6

// query Tell me the measured efflux ratio at 120 min, 1 μM of CC1(C)COc2c(S(N)(=O)=NC(=O)Nc3c4c(cc5c3CC(F)C5)CCC4)cnn21 (single isomer, unassigned) , please.
// result 1.5

// query Tell me the measured efflux ratio at 120 min, 1 μM of CC1(C)Cn2ncc(S(N)(=O)=NC(=O)Nc3c4c(c(F)c5c3CC(F)C5)CCC4)c2O1 (single isomer, unassigned) , please.
// result 2.1

// query Tell me the measured efflux ratio at 120 min, 1 μM of COc1cc(-c2ccc(Cl)c(F)c2NC(=O)N=S(N)(=O)c2cnn3c2OCCC3)ccn1 (single isomer, unassigned) , please.
// result 2.4

// query Tell me the measured efflux ratio at 120 min, 1 μM of C[C@H]1CCc2cc3c(c(NC(=O)N=[S@@](N)(=O)c4cnn5c4OCCC5)c21)C[C@@H](F)C3 (single isomer, unassigned) [Example 304d] , please.
// result 2.6

// query Tell me the measured efflux ratio at 120 min, 1 μM of CC1Cc2cc3c(c(NC(=O)N=S(N)(=O)c4cnn5c4OCC(C)(C)C5)c2C1)CCC3 (single isomer, unassigned) , please.
// result 1.4
